# measurementProtocol: chemical genetic growth profiling, strain panel (AID 1159580);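 note: tested at 20 µM; growth read once vehicle control cultures reached saturation at 30 °C; lower values mean less growth of the strain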
# testConditions: S. cerevisiae deletion strains, growth OD, locus YMR058W, strain fet3
About 2,000 (36%) of roughly 5,500 compounds were called active. Roughly 18% stayed inconclusive and do not appear here. Cut-off read from the data, not from the text of the source: active = normalized growth mostly below about 0.91 (no sharp cut-off); inconclusive = no clear call, values can overlap the other calls; inactive = mostly above about 0.92. The list shows a part of the results.
Permitted responses: true (active), false (inactive)

Solved entries:
What did this assay record as the result for NCCSSCCN ?
false

What would you report for O=C(O)c1c2ccccc2cc2ccccc12 ?
false

What would you report for OCCN1C[C@@H](O)[C@@H](O)C(O)C1CO (some centres not stated) ?
false

What would you report for CC(=O)NC1SCCC1=O (configuration not stated) ?
false

New cases:
What did this assay record as the result for CC(C)OC(=O)C(C)(C)Oc1ccc(C(=O)c2ccc(Cl)cc2)cc1 ?
false

What would you report for CC(N)C(=O)OC(C)(C)Cc1ccc(Cl)cc1 (configuration not stated) ?
false

What would you report for COc1ccc2cc([C@H](C)CO)ccc2c1 ?
false

What would you report for CC(=O)OCC(=O)[C@H]1CCC2C3CCC4=CC(=O)CC[C@]4(C)C3CC[C@@]21C (some centres not stated) ?
false

What would you report for Cc1cc(O)c(C=O)c(O)c1C(=O)O ?
false

What would you report for CCCCCCCCNC(C)C(O)c1ccc(SC(C)C)cc1 (configuration not stated) ?
true

What would you report for CCOC(=O)C(C)(C)Oc1ccc(Cl)cc1 ?
false
